Cited source: patent US7696129B2

- System: Smaller Tea Tortrix (Adxophyes sp.)
- Test summary: Test Example 3: insecticidal effect on smaller tea tortrix, tea leaf immersion
- Type: in vivo
- Reported conditions: 50 ppm, tea leaves immersed about 30 seconds, larvae, 25° C., humidity 70%, eight days after the inoculation
Result type: Test Example 3 (insecticidal effect, mortality criterion)

Consider the worked cases shown below.
- Compound: "CON=CC(C)(C)NC(=O)c1ccccc1C(=O)Nc1ccc(C(C(F)(F)F)C(F)(F)F)cc1C"
  Result: "A (Mortality 100%)"
- Compound: "CC(C)(CS(C)(=O)=O)NC(=O)c1c(I)cccc1C(=O)Nc1ccc(C(C(F)(F)F)C(F)(F)F)nc1"
  Result: "A (Mortality 100%)"
- Compound: "CSCC(C)(C)NC(=O)c1c(F)cccc1C(=O)Nc1ccc(C(C(F)(F)F)C(F)(F)F)cc1C"
  Result: "A (Mortality 100%)"
- Compound: "CSCC(C)(C)NC(=O)c1c(I)cccc1C(=O)Nc1ccc(CC(F)(F)F)cc1F"
  Result: "A (Mortality 100%)"

Problem: Given CSCC(C)NC(=O)c1c(I)cccc1C(=O)Nc1ccc(C(C(F)(F)F)C(F)(F)F)cc1C (centres unmarked) , state its recorded Test Example 3 (insecticidal effect, mortality criterion).
Solution: A (Mortality 100%)

Problem: Given CSCC(C)(C)NC(=O)c1c(I)cccc1C(=O)Nc1ccc(CC(F)(F)C(F)(F)F)cc1C , state its recorded Test Example 3 (insecticidal effect, mortality criterion).
Solution: A (Mortality 100%)

Problem: Given CCc1cc(C(C(F)(F)F)C(F)(F)F)ccc1NC(=O)c1cccc(I)c1C(=O)NC(C)(C)CSC , state its recorded Test Example 3 (insecticidal effect, mortality criterion).
Solution: A (Mortality 100%)
